Consider the following compounds and their measured IC50 readings.
System: HIV-1IIIB strain
run_description: HIV-1 cytoprotection assay (CEM-SS cells, MTS dye reduction)
Assay type: cell-based
run_parameters: Human immunodeficiency virus 1, 144 h; CEM-SS cells, HIV-1 IIIB strain, 6 days incubation, cytoprotection by MTS; read-out: IC50 HIV-1IIIB strain

Would you please look over these solved cases?
1. CC/C=C\C/C=C\C/C=C\C/C=C\C/C=C\C/C=C\CCC(=O)Nc1ccn(C2CS[C@H](CO)O2)c(=O)n1 (stereo partly drawn) ... < 100 nM
2. CC/C=C\C/C=C\C/C=C\C/C=C\C/C=C\CCCC(=O)Nc1ccc(S(=O)(=O)N(CC(C)C)C[C@@H](O)[C@H](Cc2ccccc2)NC(=O)O[C@H]2CO[C@H]3OCC[C@H]32)cc1 ... < 100 nM

Consider the additional compound presented here.
Query :: Endpoint output: IC50 of CC/C=C\C/C=C\C/C=C\C/C=C\C/C=C\C/C=C\CCC(=O)NCCNC(=O)OC[C@H]1OC(n2cc(C)c(=O)[nH]c2=O)C[C@@H]1N=[N+]=[N-] (stereo partly drawn) . Value?
Result :: > 100 nM

====

System: NF-κB
run_description: NF-κB luciferase reporter assay in LPS-stimulated RAW 264.7 macrophages
Type: cell-based
run_parameters: Mus musculus, RAW264.7; RAW 264.7 cells with 3×NFkB response element luciferase reporter, 2 h pretreatment, 200 ng/ml LPS for 3 h; read-out: NF-kB inhibitory activity IC50
readout_name: IC50

1) CC/C=C\C/C=C\C/C=C\C/C=C\C/C=C\C/C=C\CCC(=O)Nc1ccn(C2CS[C@H](CO)O2)c(=O)n1 (stereo partly drawn) ... > 200 µM

Query :: Endpoint output: IC50 of CC/C=C\C/C=C\C/C=C\C/C=C\C/C=C\C/C=C\CCC(=O)NCCNC(=O)OC[C@H]1OC(n2cc(C)c(=O)[nH]c2=O)C[C@@H]1N=[N+]=[N-] (stereo partly drawn) . Value?
Result :: < 50 µM

Query :: Endpoint output: IC50 of CC/C=C\C/C=C\C/C=C\C/C=C\C/C=C\C/C=C\CCC(=O)NCCOCCNC(=O)OC[C@H]1OC(n2cc(C)c(=O)[nH]c2=O)C[C@@H]1N=[N+]=[N-] (stereo partly drawn) . Value?
Result :: 50 to 200 µM

====

Test system: HIV-1IIIB strain
run_description: HIV-1 cytoprotection assay (CEM-SS cells, MTS dye reduction)
Type: cell-based
run_parameters: Human immunodeficiency virus 1, IIIB, CEM-SS, 144 h, read-out: IC50 HIV-1IIIB strain (nM)
readout_name: IC50

1. CC/C=C\C/C=C\C/C=C\C/C=C\C/C=C\C/C=C\CCC(=O)NCCNC(=O)OC[C@@H]1OC(n2ccc(N)nc2=O)CS1 (some centres unmarked) ... < 100 nM
2. CC/C=C\C/C=C\C/C=C\C/C=C\C/C=C\CCCC(=O)NCCNP(=O)(OC)OC[C@H]1OC(n2cc(C)c(=O)[nH]c2=O)C[C@@H]1N=[N+]=[N-] (some centres unmarked) ... > 100 nM
3. CC/C=C\C/C=C\C/C=C\C/C=C\C/C=C\C/C=C\CCC(=O)Nc1ccc(S(=O)(=O)N(CC(C)C)C[C@@H](O)[C@H](Cc2ccccc2)NC(=O)O[C@H]2CO[C@H]3OCC[C@H]32)cc1 ... < 100 nM
4. CC/C=C\C/C=C\C/C=C\C/C=C\C/C=C\C/C=C\CCC(=O)NCCNP(=O)(OC[C@@H]1O[C@H](n2ccc(N)nc2=O)CS1)Oc1ccccc1 (some centres unmarked) ... < 100 nM

Consider the additional molecule presented here.
Query :: Endpoint output: IC50 of CC/C=C\C/C=C\C/C=C\C/C=C\C/C=C\C/C=C\CCC(=O)NCCNP(=O)(OC[C@H]1OC(n2cc(C)c(=O)[nH]c2=O)C[C@@H]1N=[N+]=[N-])Oc1ccccc1 (some centres unmarked) . Value?
Result :: < 100 nM

Source of measurements: patent US20160129122A1
